- Assay name: PK profiles after IV and PO administration to BALB/c mice
- Format: in vivo
- Conditions: BALB/c, mouse, blood, po, 20 mg/kg, PO 20.0 mg/kg, individual animals; read-out: Cmax
- Description: The pharmacokinetics and oral bioavailability of Compound 42 were investigated in mice following single intravenous (IV) injection and oral administration (PO).
Metric: Cmax (ng/mL)
Report the figure in ng/mL without appending any unit label.

Which value of Cmax has been reported for CC(=O)c1ccc(-c2cc(C(=O)c3ccc(C(F)(F)F)cc3)n3ccccc23)cc1 [Compound 42] in the records?
211

###

- Assay name: PK profiles after IV and PO administration to BALB/c mice
- Assay type: in vivo
- Conditions: BALB/c, mouse, blood, iv, 5 mg/kg, IV administration; read-out: mean volume of distribution at steady state (Vss)
Metric: Vd
Answer as a quantity: numeral, then unit.

Which value of Vd has been reported for CC(=O)c1ccc(-c2cc(C(=O)c3ccc(C(F)(F)F)cc3)n3ccccc23)cc1 in the records?
10.2 L/kg

###

- Assay name: PK profiles after IV and PO administration to BALB/c mice
- Assay type: in vivo
- Conditions: BALB/c, mouse, blood, po, 20 mg/kg, PO 20.0 mg/kg, mean n=3; read-out: MRT(0-∞)
Metric: MRT inf

Which value of MRT inf has been reported for CC(=O)c1ccc(-c2cc(C(=O)c3ccc(C(F)(F)F)cc3)n3ccccc23)cc1 [Compound 42] in the records?
15.4 h

###

- Assay name: PK profiles after IV and PO administration to BALB/c mice
- Assay type: in vivo
- Conditions: BALB/c, mouse, blood, po, 20 mg/kg, PO 20 mg/kg, 1.00 h, individual animals 201-203; read-out: concentration in blood
Metric: concentration at 1 h (ng/mL)
Report the figure in ng/mL without appending any unit label.

Which value of concentration at 1 h has been reported for CC(=O)c1ccc(-c2cc(C(=O)c3ccc(C(F)(F)F)cc3)n3ccccc23)cc1 [Compound 42] in the records?
211

###

- Assay name: PK profiles after IV and PO administration to BALB/c mice
- Format: in vivo
- Conditions: BALB/c, mouse, blood, po, 20 mg/kg, PO 20.0 mg/kg, individual animals; read-out: MRT(0-t)
Metric: MRT last (h)
Report the figure in h without appending any unit label.

Which value of MRT last has been reported for CC(=O)c1ccc(-c2cc(C(=O)c3ccc(C(F)(F)F)cc3)n3ccccc23)cc1 in the records?
7.66

###

- Assay name: PK profiles after IV and PO administration to BALB/c mice
- Format: in vivo
- Conditions: BALB/c, mouse, blood, iv, 5 mg/kg, IV 5.0 mg/kg, mean n=3; read-out: MRTlast MRT(0-t)
Metric: MRT last (h)
Report the figure in h without appending any unit label.

Which value of MRT last has been reported for CC(=O)c1ccc(-c2cc(C(=O)c3ccc(C(F)(F)F)cc3)n3ccccc23)cc1 in the records?
4.27

###

- Assay name: PK profiles after IV and PO administration to BALB/c mice
- Format: in vivo
- Conditions: BALB/c, mouse, blood, iv, 5 mg/kg, IV 5 mg/kg, 4.00 h, individual animals 101-103; read-out: concentration in blood
Metric: concentration at 4 h (ng/mL)
Report the figure in ng/mL without appending any unit label.

Which value of concentration at 4 h has been reported for CC(=O)c1ccc(-c2cc(C(=O)c3ccc(C(F)(F)F)cc3)n3ccccc23)cc1 [Compound 42] in the records?
97.9

###

- Assay name: PK profiles after IV and PO administration to BALB/c mice
- Format: in vivo
- Conditions: BALB/c, mouse, blood, po, 20 mg/kg, PO 20.0 mg/kg, individual animals; read-out: T1/2 (converted)
Metric: half-life

Which value of half-life has been reported for CC(=O)c1ccc(-c2cc(C(=O)c3ccc(C(F)(F)F)cc3)n3ccccc23)cc1 in the records?
11.6 h

###

- Assay name: PK profiles after IV and PO administration to BALB/c mice
- Assay type: in vivo
- Conditions: BALB/c, mouse, blood, po, 20 mg/kg, PO 20 mg/kg, 3.00 h, mean; read-out: concentration in blood, Mean PO
Metric: concentration at 3 h
Answer as a quantity: numeral, then unit.

Which value of concentration at 3 h has been reported for CC(=O)c1ccc(-c2cc(C(=O)c3ccc(C(F)(F)F)cc3)n3ccccc23)cc1 in the records?
161 ng/mL

###

- System: THP-1 cells
- Assay name: Cell viability assay (CellTiter Clo) in THP-1 cells
- Assay type: cell-based, Human
- Conditions: THP-1 cells, 20 μM of each compound, co-treated with cGAMP (1 μg/ml)
Normalized cell viability values for the molecules below.
Reply: number alone, nothing else.

Reference set (3 entries):
> print(dat)
                                   molecule  assayed.target  reported.value
1  CCN(CC)c1ccc(C(=O)c2cc(-c3ccc(OC)cc3)c3cc(C(F)(F)F)ccn23)cc1 [Compound 19]     THP-1 cells            1.29
2  COc1ccc(C(=O)c2cc(-c3ccc(C(F)(F)F)cc3)c3ccccn23)cc1 [Compound 51]     THP-1 cells            1.32
3  O=C(c1ccc(C(F)(F)F)cc1)c1cc(-c2ccccc2)c2cc(C(F)(F)F)ccn12 [Compound 3]     THP-1 cells            1.04

Which value of Normalized cell viability has been reported for CC(=O)c1cc(-c2ccccc2)c2ccccn12 [Compound 85] in the records?
1.22

Which value of Normalized cell viability has been reported for CC(=O)c1ccc(-c2cc(C(=O)c3ccc(C(F)(F)F)cc3)n3ccccc23)cc1 [Compound 42] in the records?
1.20

Which value of Normalized cell viability has been reported for CC(=O)c1ccn2c(C(=O)c3ccccc3)cc(-c3ccc(C)c(N)c3)c2c1 [Compound 62] in the records?
1.23

###

- Assay name: PK profiles after IV and PO administration to BALB/c mice
- Format: in vivo
- Conditions: BALB/c, mouse, blood, iv, 5 mg/kg, IV 5.0 mg/kg, mean n=3; read-out: C0
Metric: C0

Which value of C0 has been reported for CC(=O)c1ccc(-c2cc(C(=O)c3ccc(C(F)(F)F)cc3)n3ccccc23)cc1 [Compound 42] in the records?
3830 ng/mL

###

- Assay name: PK profiles after IV and PO administration to BALB/c mice
- Assay type: in vivo
- Conditions: BALB/c, mouse, blood, iv, 5 mg/kg, IV 5.0 mg/kg, mean n=3; read-out: Cmax
Metric: Cmax (ng/mL)
Report the figure in ng/mL without appending any unit label.

Which value of Cmax has been reported for CC(=O)c1ccc(-c2cc(C(=O)c3ccc(C(F)(F)F)cc3)n3ccccc23)cc1 [Compound 42] in the records?
2750

###

- Assay name: PK profiles after IV and PO administration to BALB/c mice
- Format: in vivo
- Conditions: BALB/c, mouse, blood, po, 20 mg/kg, PO 20.0 mg/kg, mean n=3; read-out: AUC(0-t)
Metric: AUC(0-t) (ng·h/mL)
Report the figure in ng·h/mL without appending any unit label.

Which value of AUC(0-t) has been reported for CC(=O)c1ccc(-c2cc(C(=O)c3ccc(C(F)(F)F)cc3)n3ccccc23)cc1 in the records?
2320

###

- Assay name: PK profiles after IV and PO administration to BALB/c mice
- Assay type: in vivo
- Conditions: BALB/c, mouse, blood, iv, 5 mg/kg, IV 5.0 mg/kg, mean n=3; read-out: Cl_obs Cl (converted)
- Description: The pharmacokinetics and oral bioavailability of Compound 42 were investigated in mice following single intravenous (IV) injection and oral administration (PO).
Metric: clearance (mL/min/kg)
Report the figure in mL/min/kg without appending any unit label.

Which value of clearance has been reported for CC(=O)c1ccc(-c2cc(C(=O)c3ccc(C(F)(F)F)cc3)n3ccccc23)cc1 in the records?
22.7

###

- Assay name: PK profiles after IV and PO administration to BALB/c mice
- Format: in vivo
- Conditions: BALB/c, mouse, blood, iv, 5 mg/kg, IV 5 mg/kg, 0.083 h, mean; read-out: concentration in blood, Mean IV
Metric: concentration at 0.083 h (ng/mL)
Report the figure in ng/mL without appending any unit label.

Which value of concentration at 0.083 h has been reported for CC(=O)c1ccc(-c2cc(C(=O)c3ccc(C(F)(F)F)cc3)n3ccccc23)cc1 in the records?
2750

###

- Tested on: THP-1 cells
- Assay name: Cell viability assay (CellTiter Clo) in THP-1 cells
- Type: cell-based, Human
- Conditions: THP-1 cells, 20 μM of each compound, co-treated with cGAMP (1 μg/ml)
Metric: Normalized cell viability
Reply: number alone, nothing else.

> print(dat)
                            smiles.notation                     metric  reported.value
1  COc1ccc(C(=O)c2cc(-c3ccc(OC)cc3)c3cc(C(C)=O)ccn23)cc1  Normalized cell viability            1.26
2  CC(=O)c1ccn2c(C(=O)c3ccc(C(F)(F)F)cc3)cc(-c3ccc(N(C)C)cc3)c2c1  Normalized cell viability            1.12
3  COc1ccc(-c2cc(C(=O)c3ccccc3)n3ccccc23)cc1  Normalized cell viability            1.21
4  COc1ccc(C(=O)c2cc(-c3ccc(C(F)(F)F)cc3)c3cc(C(F)(F)F)ccn23)cc1  Normalized cell viability            1.16
5  CC(=O)c1ccn2c(C(=O)c3ccc(C(F)(F)F)cc3)cc(-c3ccccc3)c2c1  Normalized cell viability            1.11

Which value of Normalized cell viability has been reported for O=C(c1ccc(C(F)(F)F)cc1)c1cc(-c2ccccc2)c2ccccn12 in the records?
1.13

Which value of Normalized cell viability has been reported for CCN(CC)c1ccc(C(=O)c2cc(-c3ccc(C(C)=O)cc3)c3cc(C(F)(F)F)ccn23)cc1 in the records?
1.29

Which value of Normalized cell viability has been reported for COc1ccc(C(=O)c2cc(-c3ccc(C(C)=O)cc3)c3cc(C(C)=O)ccn23)cc1 in the records?
1.11

Which value of Normalized cell viability has been reported for CCN(CC)c1ccc(-c2cc(C(=O)c3ccccc3)n3ccc(C(C)=O)cc23)cc1 in the records?
1.24

Which value of Normalized cell viability has been reported for CCN(CC)c1ccc(C(=O)c2cc(-c3ccc(C(F)(F)F)cc3)c3ccccn23)cc1 in the records?
1.23

Which value of Normalized cell viability has been reported for COc1ccc(C(=O)c2cc(-c3ccc(N(C)C)cc3)c3cc(C(C)=O)ccn23)cc1 in the records?
1.26

Which value of Normalized cell viability has been reported for CC(=O)c1ccn2c(C(=O)c3ccc(C(F)(F)F)cc3)cc(-c3ccc(C(F)(F)F)cc3)c2c1 in the records?
1.19
